Cellular binding assay [RFU]: recorded values
Target: T1, CD134 expressed on the cell surface of HT1080_OX40 cells (human, UniProt P43489 29-277)
T1 construct: whole, on cells; species not restated for the HT1080 transfectant
T1 sequence (looked up): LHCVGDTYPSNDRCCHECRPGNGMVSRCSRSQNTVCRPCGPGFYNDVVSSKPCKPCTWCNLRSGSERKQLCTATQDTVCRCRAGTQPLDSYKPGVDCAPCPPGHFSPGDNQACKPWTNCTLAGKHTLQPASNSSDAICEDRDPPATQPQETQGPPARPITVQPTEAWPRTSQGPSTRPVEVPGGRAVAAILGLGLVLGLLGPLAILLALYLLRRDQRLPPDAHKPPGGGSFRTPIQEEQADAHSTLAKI
Test: HT1080_OX40 cells, imaging; also: test concentration or dose not given here
Measured Endpoint: Cellular binding assay [RFU]

{"Binder": "P018.S.12.A.C02 (antibody, V domains shown, V regions on human Ig constant parts; also called AB134_62) VH: QEQLVESGGGLVQPEGSLTLTCTASGFSFSNNAMCWVRQAPGKGLEWIACIYDGSSGSTYYATWAKGRFTISKTSSTTVTLQMTSLTAADTATYFCARAYGGYTVYDYAFNLWGPGTLVTVSS VL: DVVMTQTPASVSEPVGGTVTIKCQASQSIGSDLAWYQQKPGQPPKLLIYYTTNLETGVSSRFKGSRSGTEYALTISDLESADAATYYCQYGVRSTYSFGGGTEVVVK", "Reported Measurement": "571 RFU"}
{"Binder": "P018.S.11.A.E05 (antibody, V domains shown, V regions on human Ig constant parts; also called AB134_36) VH: QSLEESGGRLVTPGTPLTLNCTASGFSLSAYWMGWVRQAPGKGLEWIGIIYATGSTYYTTWAKGRFTISRTSTTVDLKMTSPTTEDTATYFCGRGDGYESLNLWGPGTLVTVSS VL: AQVLTQTPSSVSAAVGGTVTINCQSSQSVYSNNLLSWYQQKPGQPPKRLIYGASTLDSGVSSRFKGSGSGTQFTLTISGMQSDDAATYYCLGYYSGGIYVFGGGTEVVVK", "Reported Measurement": "407 RFU"}
{"Binder": "P018.S.11.A.C04 (antibody, V domains shown, V regions on human Ig constant parts; also called AB134_29) VH: QSVEESGGRLVTPGTPLTLTCTVSGFSLGSYPMIWVRQAPGKGLEWIGYIDPGRGTTLYASWARGLFTISKTSTTVDLAMTSPTAADTATYFCARSYPGDGAGDLWGQGTLVTVSS VL: DVVMTQTPASVSEPVGGTVTIKCQASESISNYFSWYQQKPGQPPKLLIYGASTLESGVSSRFKGSGSGTDFTLTISDLESADAATYYCQCTYYGSGDVGGAFGGGTEVVVK", "Reported Measurement": "406 RFU"}
{"Binder": "P018.S.11.A.E06 (antibody, V domains shown, V regions on human Ig constant parts; also called AB134_37) VH: QSVEESGGRLVTPGTPLTLTCTASGFSLSSYYMSWVRQAPGKGLEWIGIIDTGSGDTWYATWAKGRFTISKTSTTVDLKMTSLTTEDTATYFCARVNPEFAHVWPYYFDLWGQGTLVTVSS VL: ALVMTQTPASVEVAVGGTVTIKCQASQSISSNFLSWYQQNPGQPPKLLIDRASTLESGVPSRFKGSGSGTEFTLTISDLESADAATYYCQQGDSLSNVENAFGGGTELVVK", "Reported Measurement": "554 RFU"}
{"Binder": "P018.S.12.A.H05 (antibody, V domains shown, V regions on human Ig constant parts; also called AB134_91) VH: QSLEESGGDLVKPGASLTLTCTASGFSFDIDYYMCWVRQAPGKGLEWIACIYAGSSGSTYYASWAKGRFTISKTSSTTVTLQMPSLTAADTATYFCARHYAGYAGDAYATDYYFNLWGRGTLVTVSS VL: DIVMTQTPSSVSATVGDTVTINCQASQSVSNFLAWYQQKPGQPPKPLIYGASNLESGVPSRFRGSGSGTEFTLTISGMKAEDAATYYCQSGYYSATFGAGTKVEIK", "Reported Measurement": "527 RFU"}
{"Binder": "P018.S.12.A.F04 (antibody, V domains shown, V regions on human Ig constant parts; also called AB134_80) VH: QQQLEESGGGLVKPGGTLTLTCTASGIDFSSYWMWWVRQPPGKGLEWVACIYNGDGSTYYASWAKGRFTISKTSSTTVTLQMTSLTAADTATYFCARDFHLWGPGTLVTVSS VL: AQVLTQTASPVSAAVGSTVTINCQASQNIYKNNYLSWYQQKPGQPPKGLIYSASTLDSGVPLRFSGSGSGTKFTLTISDVQSDDAATYYCLGSVACSGPDCIVFGGGTEVVVK", "Reported Measurement": "551 RFU"}
{"Binder": "P018.S.11.A.G04 (antibody, V domains shown, V regions on human Ig constant parts; also called AB134_44) VH: QSVEESGGRLVTPGTPLTLTCTASGFDLSSYYMSWVRQAPGKGLEWIGIIYTDSSASYASWAKGRFTISRTSTTVDLKMTSPTTEDTATYFCARGLVVSTDNYNLWGPGTLVTVSS VL: AAVLTQTPSPVSVAVGGTVTINCQASQSIYNNNYLAWFQQKPGQPPKLLIYYTSTLASGVPSRFKGSGSGTQFTLTINGVQSDDAATYYCLGDVGGGMRVFGGGTEVVVK", "Reported Measurement": "482 RFU"}
{"Binder": "P018.S.12.A.D04 (antibody, V domains shown, V regions on human Ig constant parts; also called AB134_69) VH: QSVEESGGRLVTPGTPLTLTCTVSGIDLSSYAMGWVRQAPGKGLEYIGIISYDGSTYYASWAKGRFTISKTSTTVDLKITSPTTEDTATYFCARVDYGDYNFALWGQGTLVTVSS VL: DVVMTQTPASVSEVVGGTVTIKCQASESISNYLAWYQQKPGQPPKLLIYAASNLASGVPSRFSGSGSGTQFTLTISDLESADAATYYCQCTYYVSSYFAFSGGTEVVVK", "Reported Measurement": "488 RFU"}
{"Binder": "P018.S.12.A.A04 (antibody, V domains shown, V regions on human Ig constant parts; also called AB134_53) VH: QSVEESGGRLVTPGTPLTLTCTVSGIDLSSYAMSWVRQAPGKGLEYIGIISGSGNTYYASWAKGRFTISKTSTTVDLKISSPTTEDTATYFCCRGDPSYSIDGFDPWGPGTLVTVSS VL: AAVLTQTPSPVSAAVGGTVTINCQSSQSVYNNNDLAWYQQKPGQPPKLLIYRASNLASGVPSRFSGSGSGTQFTLTISGVQSGDAATYYCLGAWDDDADTWAFGGGTEVVVE", "Reported Measurement": "514 RFU"}
{"Binder": "P018.S.12.A.B06 (antibody, V domains shown, V regions on human Ig constant parts; also called AB134_60) VH: QEQLEESGGGLVQPEGSLTLTCTASGFSFSYYWMCWVRQAPGKGLEWSACIGTGSGSTYYATWAKGRFTISKTSSTTVTLQMTSLTAADTATYFCARDWGIYSSDAYYMDYFNLWGPGTLVTVSS VL: AFELTQTPASVEAAVGGTVTIKCQASQSIGSYLAWYQQKPGQPPKPLIYEASKLASGVSSRFKGSGSGTQFTLTISGVESADAATYYCQQGGISTNVQNAFGGGTEVVVK", "Reported Measurement": "451 RFU"}
